# run parameters: Example 18: doxorubicin-siosomes prepared from the single organosilicon compound
Attribute: Particle size range of the Doxorubicin-siosomes (nm)

Consider the following illustrative entries.
[[record]]
compound = "CCCCCCCCCCCC[Si](CCCCCCCCCCCC)(CCCCCCCCCCCC)O[C@@H]1O[C@H](COC(C)=O)[C@@H](OC(C)=O)[C@H](OC(C)=O)[C@H]1OC(C)=O [SIL 18]"
observed_measurement = "160-250 nm"

[[record]]
compound = "CCCCCCCCCC[Si](C)(C)CCO[C@@H]1O[C@H](COS(=O)(=O)O)[C@@H](O)[C@H](O)[C@H]1O [SIL 56]"
observed_measurement = "200-220 nm"


State its Particle size range of the Doxorubicin-siosomes (nm) for this compound: CCCCCCCCCC[Si](C)(C)CCO[C@@H]1O[C@H](C(=O)O)[C@@H](O)[C@H](O)[C@H]1O [SIL 57]
180-270 nm

====

# run parameters: Example 18: doxorubicin-siosomes prepared from the single organosilicon compound
Below, each entry is listed alongside its reported Particle size range of the Doxorubicin-siosomes (nm).

Here's what some known entries look like.
[[record]]
compound = "CCCCCCCCCCCC[Si](CCCCCCCCCCCC)(O[C@@H]1O[C@H](COC(C)=O)[C@@H](OC(C)=O)[C@H](OC(C)=O)[C@H]1OC(C)=O)O[C@@H]1O[C@H](COC(C)=O)[C@@H](OC(C)=O)[C@H](OC(C)=O)[C@H]1OC(C)=O"
observed_measurement = "180-240 nm"

[[record]]
compound = "CCCCCCCCCC[Si](C)(C)O[C@H]1O[C@H](CO)[C@H](O)[C@H](O)[C@H]1O"
observed_measurement = "100-220 nm"

[[record]]
compound = "C[Si](C)(CCCCCCCCC(=O)O)CCO[C@@H]1O[C@H](CO)[C@@H](O)[C@H](O)[C@H]1O"
observed_measurement = "150-270 nm"


Give the measured Particle size range of the Doxorubicin-siosomes (nm) for CCCCCCCCCC(=O)O[Si](C)(C)OC(=O)CCCCCCCCC
210-240 nm

State, in one line, measured Particle size range of the Doxorubicin-siosomes (nm) of CCCCCCCCCCCCCCCCCC[Si](CCCCCCCCCCCCCCCCCC)(O[C@@H]1O[C@H](COC(C)=O)[C@H](OC(C)=O)[C@H](OC(C)=O)[C@H]1OC(C)=O)O[C@@H]1O[C@H](COC(C)=O)[C@H](OC(C)=O)[C@H](OC(C)=O)[C@H]1OC(C)=O
180-250 nm

Quick one: give measured Particle size range of the Doxorubicin-siosomes (nm) for CCCCCCCCCCCCCCCCCC[Si](CCCCCCCCCCCCCCCCCC)(O[C@@H]1O[C@H](COC(C)=O)[C@@H](OC(C)=O)[C@H](OC(C)=O)[C@H]1OC(C)=O)O[C@@H]1O[C@H](COC(C)=O)[C@@H](OC(C)=O)[C@H](OC(C)=O)[C@H]1OC(C)=O
210-260 nm

Look up and report measured Particle size range of the Doxorubicin-siosomes (nm) for this entry: C[Si](C)(CCCCCCCCCC(=O)O)CCOC1O[C@H](CO)[C@H](O)[C@H](O)[C@H]1N (some centres unmarked)
180-220 nm

Input CCCCCCCCCCCC[Si](C)(C)O[C@H]1O[C@H](CO)[C@@H](O)[C@H](O)[C@H]1O , output reported Particle size range of the Doxorubicin-siosomes (nm).
150-200 nm
